target: NLRP3 inflammasome (Homo sapiens (Human), UniProt Q96P20); assay: Evaluation of NLRP3 inflammasome inhibitory activity (inhibition of IL-1β production in THP1-Null cells, LPS/Nigericin); conditions: inhibition of IL-1β production in THP1-Null cells
Sequence (Q96P20 whole entry): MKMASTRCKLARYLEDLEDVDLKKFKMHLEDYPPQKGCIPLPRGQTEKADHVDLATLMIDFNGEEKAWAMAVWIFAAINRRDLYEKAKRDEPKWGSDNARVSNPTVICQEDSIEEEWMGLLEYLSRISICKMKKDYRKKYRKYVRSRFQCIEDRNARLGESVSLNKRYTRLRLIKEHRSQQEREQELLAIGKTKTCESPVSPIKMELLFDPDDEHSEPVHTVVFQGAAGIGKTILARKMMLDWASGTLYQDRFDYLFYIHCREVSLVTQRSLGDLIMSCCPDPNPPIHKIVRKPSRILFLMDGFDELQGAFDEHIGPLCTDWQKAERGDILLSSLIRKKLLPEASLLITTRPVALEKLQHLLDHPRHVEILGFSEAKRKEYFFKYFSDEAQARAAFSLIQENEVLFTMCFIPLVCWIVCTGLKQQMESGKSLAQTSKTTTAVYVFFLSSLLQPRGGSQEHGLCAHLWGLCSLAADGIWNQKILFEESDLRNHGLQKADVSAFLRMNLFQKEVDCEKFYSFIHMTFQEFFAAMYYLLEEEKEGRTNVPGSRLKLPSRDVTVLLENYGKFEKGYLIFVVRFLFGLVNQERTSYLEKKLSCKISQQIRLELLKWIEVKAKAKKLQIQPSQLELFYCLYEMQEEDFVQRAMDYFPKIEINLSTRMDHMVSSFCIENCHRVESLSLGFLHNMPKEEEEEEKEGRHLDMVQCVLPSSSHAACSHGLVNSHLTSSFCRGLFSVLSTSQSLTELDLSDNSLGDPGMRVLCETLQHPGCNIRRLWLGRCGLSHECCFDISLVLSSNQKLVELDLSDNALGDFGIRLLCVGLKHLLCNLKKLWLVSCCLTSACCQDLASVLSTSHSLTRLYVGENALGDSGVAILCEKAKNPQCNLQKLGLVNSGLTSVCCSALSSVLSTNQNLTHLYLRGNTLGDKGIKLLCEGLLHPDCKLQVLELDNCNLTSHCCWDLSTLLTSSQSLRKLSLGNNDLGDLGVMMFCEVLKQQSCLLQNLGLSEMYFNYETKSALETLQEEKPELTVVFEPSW
pIC50: −log10 of the molar value.
assay_endpoint: pIC50

Use the examples below as a reference point.
Cc1c(Nc2nc(C(=O)NS(=O)(=O)N3CCCOCC3)co2)c(C(C)C)nn1C(C)C [Example 2-227]
5.82
Cc1cc(C#N)c(C(F)(F)F)cc1Nc1nc(C(=O)NS(=O)(=O)N2CCCOCC2)co1 [Example 2-142]
5.20
Cc1ccc(C(F)(F)F)cc1Nc1nc(C(=O)NS(=O)(=O)N2CCCN(c3nccc(C(C)C)n3)CC2)co1 [Example 2-186]
7.39

[A] CC(C)n1cc(Nc2nc(C(=O)NS(=O)(=O)N3CCCOCC3)co2)c(C(C)(C)C)n1 [Example 2-194]
[B] CCCS(=O)(=O)N1CCCN(S(=O)(=O)NC(=O)c2coc(Nc3cc(C(F)F)ccc3C(C)C)n2)CC1 [Example 2-224]
[C] CC(C)c1ccc(C(C)C)c(Nc2nc(C(=O)NS(=O)(=O)N(C)C)co2)c1 [Example 2-070]
Input line: Please order the records by their reported pIC50, lowest number first. Field: ranking. Enter the labels in the order requested.
Output line: A, C, B
(A: 5.82, C: 6.92, B: 7.57)

====

target: NLRP3 inflammasome (Homo sapiens (Human)); test: Evaluation of NLRP3 inflammasome inhibitory activity (inhibition of IL-1β production in THP1-Null cells, LPS/Nigericin)
assay_endpoint: IC50 (nM)

Cc1ccc(C(F)(F)F)cc1Nc1nc(C(=O)NS(=O)(=O)N2CCCC(C)(C(=O)N(C)C)CC2)co1 (racemic)
87
Cc1ccc(C(F)(F)F)cc1Nc1nc(C(=O)NS(=O)(=O)N2CCOCC(C(=O)N(C)C)C2)co1 (racemic)
86

====

biological target: NLRP3 inflammasome (Homo sapiens (Human)); assay: Evaluation of NLRP3 inflammasome inhibitory activity (inhibition of IL-1β production in THP1-Null cells, LPS/Nigericin); settings: IL-1β production in THP1-Null cells, PMA/LPS primed, Nigericin 7.5 μmol/L
pIC50: −log10 of the molar value.
assay_endpoint: pIC50

Solved cases below.
Cc1ccc(C(F)(F)F)cc1Nc1nc(C(=O)NS(=O)(=O)N2CC3CCC(C2)O3)co1 [Example 77]
7.25
CN(C)C(=O)C1CCN(S(=O)(=O)NC(=O)c2coc(Nc3c4c(c(F)c5c3CCC5)CCC4)n2)CC1 [Example 63]
6.05
C[C@@H]1CCCN1S(=O)(=O)NC(=O)c1coc(Nc2c3c(c(Cl)c4c2CCC4)CCC3)n1 [Example 45]
6.70
O=C(NS(=O)(=O)NCc1ccccc1)c1cnc(Nc2c3c(cc4c2CCC4)CCC3)o1 [Example 8]
6.36
Cc1ccc2c(c1Nc1nc(C(=O)NS(=O)(=O)N3CCOCC3)co1)CCC2 [Example 32]
6.82

[a] O=C1CCN(S(=O)(=O)NC(=O)c2coc(Nc3c4c(c(Cl)c5c3CCC5)CCC4)n2)C1 [Example 65]
[b] O=C(NS(=O)(=O)N1C[C@H]2COC[C@H]2C1)c1coc(Nc2c3c(c(Cl)c4c2CCC4)CCC3)n1 [Example 61]
Input line: Between a and b , whose recorded pIC50 is greater? Record your answer as the label of the chosen record.
Output line: a
(a: 7.20, b: 6.77)

[P] O=C(NS(=O)(=O)N1CCC(F)(F)C1)c1coc(Nc2c3c(c(Cl)c4c2CCC4)CCC3)n1 [Example 49]
[Q] CN(C)S(=O)(=O)NC(=O)c1coc(Nc2c3c(c(Cl)c4c2CCC4)CCC3)n1 [Example 28]
Input line: Which of these two has the smaller recorded pIC50: P or Q ? Refer to your chosen item by its label in the answer.
Output line: P
(P: 6.57, Q: 6.92)

====

Parameter: pIC50. Scope: all listed entries.
target: NLRP3 inflammasome (Homo sapiens (Human)); test: Evaluation of NLRP3 inflammasome inhibitory activity (inhibition of IL-1β production in THP1-Null cells, LPS/Nigericin); details: IL-1β production in THP1-Null cells, PMA/LPS primed, Nigericin 7.5 μmol/L
pIC50: −log10 of the molar value.

Sample answers from the record:
O=C(NS(=O)(=O)N1CCCC1)c1coc(Nc2c3c(c(F)c4c2CCC4)CCC3)n1 [Example 35]
> 7.52
O=C(NS(=O)(=O)N1CCOCC1)c1cnc(Nc2c3c(cc4c2CCC4)CCC3)o1 [Example 2]
> 7.52

Input line: I have this compound here, CN(C)S(=O)(=O)C1CCN(S(=O)(=O)NC(=O)c2coc(Nc3c4c(c(F)c5c3CCC5)CCC4)n2)CC1 [Example 66] , and I need its recorded pIC50.
Output line: > 7.52

====

molecular target: NLRP3 inflammasome (Homo sapiens (Human), UniProt Q96P20); test: Evaluation of NLRP3 inflammasome inhibitory activity (inhibition of IL-1β production in THP1-Null cells, LPS/Nigericin); conditions: inhibition of IL-1β production in THP1-Null cells
assay_endpoint: IC50 (nM)

Cc1ccc(C2CC2)cc1Nc1nc(C(=O)NS(=O)(=O)N2CCOCC2)co1
63

[I] CC(C)n1cc(Nc2nc(C(=O)NS(=O)(=O)N3CCCOCC3)co2)c(C(F)(F)F)n1
[II] Cc1ccc(C(F)(F)F)nc1Nc1nc(C(=O)NS(=O)(=O)N(C)C)co1
Input line: Field: entry with larger IC50 (options I / II ). Write down the label of the entry you select.
Output line: I
(I: 1700 nM, II: 550 nM)

[A] Cc1cn(C(C)C)nc1Nc1nc(C(=O)NS(=O)(=O)N2CCCOCC2)co1
[B] Cc1ccc(C(F)F)cc1Nc1nc(C(=O)NS(=O)(=O)N2CCOC(COC(F)F)CC2)co1 (centres unmarked)
[C] COCCOCC1CCN(S(=O)(=O)NC(=O)c2coc(Nc3cc(C)ccc3C)n2)CCO1 (centres unmarked)
[D] Cc1ccc(C(F)(F)F)cc1Nc1nc(C(=O)NS(=O)(=O)N2CCCN(S(=O)(=O)CC(C)C)CC2)co1
Input line: Rank ascending by IC50. Return the labels ranked in the requested order, please.
Output line: D, B, C, A

====

target: NLRP3 inflammasome (Homo sapiens (Human)); assay: Evaluation of NLRP3 inflammasome inhibitory activity (inhibition of IL-1β production in THP1-Null cells, LPS/Nigericin); settings: inhibition of IL-1β production in THP1-Null cells
pIC50: −log10 of the molar value.
assay_endpoint: pIC50

Examples with their reported pIC50 follow.
CC(C)n1cc(Nc2nc(C(=O)NS(=O)(=O)N3CCCOCC3)co2)c(C2CC2)n1 [Example 2-195]
5.85
CCCS(=O)(=O)N1CCCN(S(=O)(=O)NC(=O)c2coc(Nc3ccccc3C)n2)CC1 [Example 2-269]
6.46
CCCS(=O)(=O)N1CCCN(S(=O)(=O)NC(=O)c2coc(Nc3cc(C(F)F)ccc3C)n2)CC1 [Example 2-270]
8.01

[P] CCCS(=O)(=O)N1CCCN(S(=O)(=O)NC(=O)c2coc(Nc3cc(C)cc(C)c3C)n2)CC1 [Example 2-288]
[Q] Cc1ccc(C(F)(F)F)cc1Nc1nc(C(=O)NS(=O)(=O)N2CCNC(=O)CC2)co1 [Example 2-050]
Input line: Among P and Q , whose measured pIC50 is the smaller figure? // caller expects the label of the chosen entry
Output line: Q
(Q: 6.22, P: 6.92)

====

molecular target: NLRP3 inflammasome (Homo sapiens (Human), UniProt Q96P20); assay: Evaluation of NLRP3 inflammasome inhibitory activity (inhibition of IL-1β production in THP1-Null cells, LPS/Nigericin)
pIC50: −log10 of the molar value.
assay_endpoint: pIC50

Recorded pIC50, per entry:
CC1COCCN1S(=O)(=O)NC(=O)c1coc(Nc2c3c(cc4c2CCC4)CCC3)n1 (racemic) [Example 25]
7.29
COCC1CN(S(=O)(=O)NC(=O)c2coc(Nc3cc(C(F)(F)F)ccc3C)n2)CCCO1 (racemic) [Example 2-091]
7.42
Cc1ccc(C(F)(F)F)cc1Nc1nc(C(=O)NS(=O)(=O)N2CCOCC(C#N)C2)co1 (racemic) [Example 2-127]
6.89

[I] Cc1cc(C)n(C2CCCN(S(=O)(=O)NC(=O)c3coc(Nc4cc(C(F)(F)F)ccc4C)n3)CC2)n1 (racemic) [Example 2-297]
[II] CCS(=O)(=O)N1CCCN(S(=O)(=O)NC(=O)c2coc(Nc3cc(C(F)(F)F)ccc3C)n2)C(C)C1 (racemic) [Example 2-241]
Input line: Of I and II , which one carries the higher reported pIC50? Reply briefly: the label of your chosen item.
Output line: II
(II: 7.43, I: 7.06)

====

molecular target: NLRP3 inflammasome (Homo sapiens (Human)); test: Evaluation of NLRP3 inflammasome inhibitory activity (inhibition of IL-1β production in THP1-Null cells, LPS/Nigericin); conditions: inhibition of IL-1β production in THP1-Null cells
assay_endpoint: IC50 (nM)

// solved cases for IC50 follow
Cc1cn(C(C)C)nc1Nc1nc(C(=O)NS(=O)(=O)N(C)C)co1
500
Cc1ccc(C(F)F)cc1Nc1nc(C(=O)NS(=O)(=O)N2CCCOCC2)co1
49
CCOCC1CCN(S(=O)(=O)NC(=O)c2coc(Nc3cc(C)ccc3C)n2)CCO1 (centres unmarked)
49
Cc1ccc(C(F)(F)F)cc1Nc1nc(C(=O)NS(=O)(=O)N2CCOC(C#N)CC2)co1 (centres unmarked)
38
COCC1CCN(S(=O)(=O)NC(=O)c2coc(Nc3cc(C(C)C)ccc3C)n2)CCO1 (centres unmarked)
30

[a] COC1COCCN(S(=O)(=O)NC(=O)c2coc(Nc3cc(C(F)(F)F)ccc3C)n2)C1 (single isomer, unassigned) [Example 2-218]
[b] CCCS(=O)(=O)N1CCCN(S(=O)(=O)NC(=O)c2coc(Nc3cc(C)ccc3CC)n2)CC1
Input line: Of the two listed items, which has the higher IC50? First: a Second: b Returns: label corresponding to the selected item.
Output line: a
